system: HepG2; assay: GSK_TCMDC: Percent inhibition of human HepG2 cell line. Test compounds present at 10uM.; type: functional
API: label(entry) gives Condition met if the entry's Inhibition is strictly smaller than 40%; on equality or larger values it gives Condition not met.

>  <COMPOUND>
NS(=O)(=O)c1cccc(Br)c1

>  <LABEL>
Condition met

$$$$
>  <COMPOUND>
O=C(c1cccc(-c2ccc(-c3nc4cc(C(F)(F)F)ccc4[nH]3)cc2)c1)N1CCCCC1CN1CCC(O)C1 (stereo not given)

>  <LABEL>
Condition met

$$$$
>  <COMPOUND>
COc1cccc(CN2CCC(C(=O)Nc3ccc(-c4nc5ccccc5[nH]4)cc3)CC2)c1

>  <LABEL>
Condition met

$$$$
>  <COMPOUND>
CN1CCC(NCc2ccc(-c3cccc(-c4nc5ccccc5[nH]4)c3)cc2)CC1.O=C(O)C(F)(F)F

>  <LABEL>
Condition not met

$$$$
>  <COMPOUND>
CC(C)Nc1nc(NCCc2c[nH]cn2)nc(Nc2ccc(Oc3ccccc3)cc2)n1

>  <LABEL>
Condition met

$$$$
>  <COMPOUND>
Clc1cc(Cl)cc(Nc2ccnc(Nc3cc(Cl)cc(Cl)c3)n2)c1

>  <LABEL>
Condition met

$$$$
>  <COMPOUND>
O=C(Nc1cc(Cl)ccc1-n1cncn1)C1(c2ccccc2)CC1

>  <LABEL>
Condition met

$$$$
>  <COMPOUND>
CN(C)C(=O)CCCn1c(CNCCCNc2cc(=O)c3ccccc3[nH]2)cc2c(Cl)cc(Cl)cc21.Cl

>  <LABEL>
Condition met

$$$$
>  <COMPOUND>
CN(C)CCN(Cc1ccccc1-c1ccc(CNCCc2ccccc2)cc1)C(=O)c1ccccc1.O=C(O)C(F)(F)F

>  <LABEL>
Condition not met

$$$$
>  <COMPOUND>
CCn1ncc(Cl)c1CN(C)S(=O)(=O)c1ccc2ccccc2c1

>  <LABEL>
Condition met

$$$$
>  <COMPOUND>
Cc1ccc(S(=O)(=O)N(C)c2ccccc2C(=O)Nc2ccccc2Oc2ccccc2)cc1

>  <LABEL>
Condition met

$$$$
>  <COMPOUND>
CC(=O)Nc1cc(C(=O)Nc2cccc(-c3csc(-c4nc5ccccc5[nH]4)c3)c2)ccc1C

>  <LABEL>
Condition met

$$$$
>  <COMPOUND>
CCNc1cc(C(=O)N[C@@H](Cc2ccco2)[C@H](O)CNC2CCCCC2)cc(N2CCCCS2(=O)=O)c1.Cl

>  <LABEL>
Condition met

$$$$
>  <COMPOUND>
Cc1ccc(Cn2nc(Cl)c(N3CCCNCC3)cc2=O)cc1NC(=O)Nc1ccc(-c2ccccc2)cc1.O=C(O)C(F)(F)F

>  <LABEL>
Condition not met

$$$$
>  <COMPOUND>
O=C(Nc1cccc(-c2cccc(-c3nc4cc(C(F)(F)F)ccc4[nH]3)c2)c1)c1csnn1

>  <LABEL>
Condition not met

$$$$
>  <COMPOUND>
CCc1ccc(-c2nc3cc(NC(=O)c4ccc([N+](=O)[O-])o4)ccc3o2)cc1

>  <LABEL>
Condition met

$$$$
>  <COMPOUND>
Br.c1cc(C2=NC3CCCCC3N2)ccc1OCCCCCOc1ccc(C2=NC3CCCCC3N2)cc1 (stereo not given)

>  <LABEL>
Condition not met

$$$$
>  <COMPOUND>
COc1ccc(-c2ccc(NC(=O)c3cccc(Cl)c3)cc2)cc1CN1CCN(C)CC1.O=C(O)C(F)(F)F

>  <LABEL>
Condition not met

$$$$
>  <COMPOUND>
CCCCNc1nc(NCCCC)c2c(C)c(Cc3ccccc3)c(NCCCC)nc2n1.Cl

>  <LABEL>
Condition not met

$$$$
>  <COMPOUND>
O=C(NC1CCN(Cc2ccccc2)CC1)c1ccc(CNC2CCN(Cc3ccccc3)CC2)cc1.O=C(O)C(F)(F)F

>  <LABEL>
Condition met

$$$$
>  <COMPOUND>
COc1cccc(NC(=O)[C@H](C)n2c(=O)[nH]c3ccccc3c2=O)c1

>  <LABEL>
Condition met

$$$$
>  <COMPOUND>
O=C(/C=C/c1ccc(Cl)c(Cl)c1)NCCCCCN1CCC(c2c[nH]c3cc(O)ccc23)CC1

>  <LABEL>
Condition met

$$$$
>  <COMPOUND>
COc1ccc(C=CC(=O)Nc2ccc(N3CCCC3)cc2)cc1.Cl

>  <LABEL>
Condition met

$$$$
>  <COMPOUND>
Br.CC=CCON1C(=N)NC(=N)NC1(C)C

>  <LABEL>
Condition not met

$$$$
>  <COMPOUND>
Cc1ccc(Nc2nccc(N(C)c3ccc4c(c3)nc(NC(=O)Cc3ccc(Cl)c(Cl)c3)n4C)n2)cc1S(N)(=O)=O.O=C(O)C(F)(F)F

>  <LABEL>
Condition not met

$$$$
>  <COMPOUND>
Cl.Nc1c2c(nc3ccc(NC(=O)CCCCCc4ccccc4)cc13)CCCC2

>  <LABEL>
Condition met

$$$$
>  <COMPOUND>
COc1cc2nc(N3CCN(c4cc(C)ccc4C)CC3)nc(N)c2cc1OC.Cl

>  <LABEL>
Condition not met

$$$$
>  <COMPOUND>
COc1ccc(C2=[N+]([O-])c3ccccc3C2=O)cc1

>  <LABEL>
Condition met

$$$$
>  <COMPOUND>
COc1ccc2c(c1)[nH]c1c(/C=C/c3ccc([N+](=O)[O-])cc3)nccc12

>  <LABEL>
Condition met

$$$$

====

test system: Plasmodium falciparum; assay: GSK_TCMDC: Inhibition of Plasmodium falciparum 3D7 in whole red blood cells, using parasite LDH activity as an index of growth. Test compounds present at 2uM; assay type: functional

>  <MOLECULE>
CCNc1c2ccc(Cl)cc2nc2ccc(OC)cc12.Cl

>  <Inhibition (%)>
99

$$$$
>  <MOLECULE>
Clc1ccc(CNc2ccnc(NCc3ccc4c(c3)OCCCO4)n2)c(Cl)c1

>  <Inhibition (%)>
94

$$$$
>  <MOLECULE>
Br.C=CCc1cccc(OC)c1OCCCON1C(=N)N=C(N)NC1(C)C

>  <Inhibition (%)>
94

$$$$
>  <MOLECULE>
COc1ccc(-c2cccc(CNC3CCN(CC4Cn5c(=O)ccc6ccc(F)c4c65)CC3)c2)cc1.O=C(O)C(F)(F)F (stereo not given)

>  <Inhibition (%)>
100

$$$$
>  <MOLECULE>
CCNc1cc(C)nc(Nc2ccc(NC(=O)c3ccc(OC)c(OC)c3)cc2)n1

>  <Inhibition (%)>
100

$$$$
>  <MOLECULE>
N=C(N)c1ccc(NCc2cccc(C(=O)O)c2)cc1.O=C(O)C(F)(F)F

>  <Inhibition (%)>
84

$$$$
>  <MOLECULE>
Cc1c(-c2cccc(CNCCc3ccc(Cl)cc3)c2)cnc(N)c1C.Cl

>  <Inhibition (%)>
87

$$$$
>  <MOLECULE>
COc1ccc(NC(=O)[C@H](CC(C)C)Nc2cc(C)nc(NCCc3ccccc3OC)n2)cc1.O=C(O)C(F)(F)F

>  <Inhibition (%)>
99

$$$$
>  <MOLECULE>
COCC(C)n1c(SC(C)C(=O)Nc2cc([N+](=O)[O-])ccc2Cl)nc2ccccc2c1=O (stereo not given)

>  <Inhibition (%)>
95

$$$$
>  <MOLECULE>
N=C(/N=C(/NCCCCCCN/C(=N\C(=N)Nc1ccc(Cl)cc1)N1CCCCC1)N1CCCCC1)Nc1ccc(Cl)cc1

>  <Inhibition (%)>
100

$$$$
>  <MOLECULE>
CN(Cc1ccc(C#N)cc1)C1CCN(c2cc(NC(=O)c3ccc(F)cc3)ccn2)CC1.O=C(O)C(F)(F)F

>  <Inhibition (%)>
86

$$$$
>  <MOLECULE>
Cc1ccc(-c2nnc(Nc3ccc(CC(N)=O)cc3)c3ccccc23)cc1S(=O)(=O)NCC1CCCO1 (stereo not given)

>  <Inhibition (%)>
83

$$$$
>  <MOLECULE>
O=C(Nc1ccc2c(c1)CCN2C1CCN(Cc2cc(F)cc(F)c2F)C1)c1ccco1 (stereo not given)

>  <Inhibition (%)>
96

$$$$
>  <MOLECULE>
COc1cccc(Nc2nc(NCCO)c3ccccc3n2)c1.Cl

>  <Inhibition (%)>
99

$$$$
>  <MOLECULE>
Cc1ccc(S(=O)(=O)N(CCCN2CCN(C)CC2)Cc2csc(-c3ccc(CNCc4ccccc4)cc3)n2)cc1.O=C(O)C(F)(F)F

>  <Inhibition (%)>
97

$$$$
>  <MOLECULE>
O=C(Cn1c(CCc2cccc(F)c2F)cc(=O)c2cccnc21)N(CCCn1ccnc1)Cc1ccc(-c2ccc(C(F)(F)F)cc2)cc1

>  <Inhibition (%)>
96

$$$$
>  <MOLECULE>
CCN(CC)CCN(Cc1ccc(-c2ccc(C(F)(F)F)cc2)cc1)C(=O)Cn1c(CCc2cccc(F)c2F)nc(=O)c2ccccc21.O=C(O)C(O)C(O)C(=O)O

>  <Inhibition (%)>
97

$$$$
>  <MOLECULE>
FC(F)(F)Oc1ccc(Nc2cc(-c3ccncc3)nc(-c3cccnc3)n2)cc1

>  <Inhibition (%)>
94

$$$$
>  <MOLECULE>
c1ccc(-c2cc3cccc(-c4nc5cnccc5[nH]4)c3o2)cc1

>  <Inhibition (%)>
100

$$$$
>  <MOLECULE>
Cc1cccc(Nc2nccc(NCC(O)c3cccc(C(F)(F)F)c3)n2)c1 (stereo not given)

>  <Inhibition (%)>
100

$$$$
>  <MOLECULE>
CN(C)CCOc1cc(O)c2c(c1)OC(C)(C)C=C2c1cccs1

>  <Inhibition (%)>
99

$$$$
>  <MOLECULE>
Cc1cc(N2CCCC2)nc(Nc2ccc(NC(=O)Cc3ccccc3)cc2)n1

>  <Inhibition (%)>
100

$$$$
>  <MOLECULE>
Cc1ccc(-c2nnc(Nc3ccc(OCC(N)=O)cc3)c3ccccc23)cc1S(=O)(=O)NCC1CCCO1 (stereo not given)

>  <Inhibition (%)>
92

$$$$
>  <MOLECULE>
Cc1cc2nc(-c3ccc(SCC(=O)Nc4ccc5c(c4)OCCO5)nc3)[nH]c2cc1C

>  <Inhibition (%)>
85

$$$$
>  <MOLECULE>
CC(=O)Nc1nnc(SCc2c(C)cc(C(C)(C)C)cc2C)s1

>  <Inhibition (%)>
98

$$$$
>  <MOLECULE>
COc1cc(C2CCN(CCCCNC(=O)c3ccc(NC(=O)c4cc(C(F)(F)F)cc(C(F)(F)F)c4)cc3)CC2)ccc1OC(C)C

>  <Inhibition (%)>
100

$$$$
>  <MOLECULE>
O=C(Nc1ccc2c(c1)OCO2)NC1CCN(c2ccnc(NCc3ccc(F)cc3)n2)CC1

>  <Inhibition (%)>
88

$$$$
>  <MOLECULE>
CCCNCc1ccc(-c2ccc(CN(CCOC)C(=O)c3ccccc3)cc2)nc1.O=C(O)C(F)(F)F

>  <Inhibition (%)>
94

$$$$
>  <MOLECULE>
CC(C)C(=O)NC(c1ccc(Cl)cc1)c1ccc2cccnc2c1O (stereo not given)

>  <Inhibition (%)>
91

$$$$
>  <MOLECULE>
COc1ccccc1CCNc1nc(C)cc(N[C@@H](Cc2ccccc2)C(=O)NCc2cccc(F)c2)n1.O=C(O)C(F)(F)F

>  <Inhibition (%)>
99

$$$$
>  <MOLECULE>
c1ccc2oc(-c3cc4ccncc4cc3OC3CCNCC3)cc2c1

>  <Inhibition (%)>
100

$$$$
>  <MOLECULE>
CN(C)C(=O)O[C@@H]1CN[C@H](C#Cc2cc3ncnc(Nc4ccc5c(cnn5Cc5cccc(F)c5)c4)c3s2)C1.Cl

>  <Inhibition (%)>
97

$$$$
>  <MOLECULE>
O=C(NCc1cccc(F)c1)Nc1ccc(-c2ccc(-c3nc4cc(C(F)(F)F)ccc4[nH]3)cc2)cc1

>  <Inhibition (%)>
100

$$$$
>  <MOLECULE>
C=CCOC(=O)N1CCC(CNCc2cccc(-c3cccc(-c4nc5cc(F)ccc5[nH]4)c3)c2)C1.O=C(O)C(F)(F)F (stereo not given)

>  <Inhibition (%)>
100

$$$$
>  <MOLECULE>
CC(C)CNC(=O)c1cncc(-c2cccc(CNC3Cc4ccccc4C3)c2)c1.O=C(O)C(F)(F)F

>  <Inhibition (%)>
100

$$$$

Value source: ChEMBL document CHEMBL1157539
